- System: Escherichia coli
- RUN_DESCRIPTION: Antibacterial activity against KPC producing Escherichia coli ATCC BAA-2340 assessed as inhibition of bacterial growth incubated for 18 to 24 hrs by broth microdilution method
- Format: functional
- ASSAY_CONTEXT: time 18-24 hrs
RECORDED_ENDPOINT: MIC (µg/mL)
Enter your answer as a number in µg/mL; do not include the unit.

Below, each entry is followed by its recorded MIC result.
CCCCCCC[C@@H](O)CC(=O)N[C@H](CO)C(=O)N[C@H](CCN)C(=O)N[C@H]1CCNC(=O)[C@H](CC(C)C)NC(=O)[C@H](CCN)NC(=O)[C@H](CCN)NC(=O)[C@H](Cc2ccccc2)NC(=O)[C@@H](CC(C)C)NC(=O)[C@H](CCN)NC1=O ... 4
CCCCCCC[C@H](O)CC(=O)N[C@H](CCN)C(=O)N[C@H]1CCNC(=O)[C@H](CC(C)C)NC(=O)[C@H](CCN)NC(=O)[C@H](CCN)NC(=O)[C@H](CC(C)C)NC(=O)[C@@H](CC(C)C)NC(=O)[C@H](CCN)NC1=O ... 2
C[C@@H](O)[C@H]1C(=O)N2C(C(=O)O)=C(S[C@@H]3CN[C@H](C(=O)N(C)C)C3)[C@H](C)[C@H]12 ... 4
CCCCCCCCCC(=O)N[C@H](CCN)C(=O)N[C@H]1CCNC(=O)[C@H]([C@@H](C)O)NC(=O)[C@H](CCN)NC(=O)[C@H](CCN)NC(=O)[C@H](CC(C)C)NC(=O)[C@@H](Cc2ccc(Cl)c(Cl)c2)NC(=O)[C@H](CCN)NC1=O ... 2
CCCCCCCCCC(=O)N[C@H](CCN)C(=O)N[C@H]1CCNC(=O)[C@H]([C@@H](C)O)NC(=O)[C@H](CCN)NC(=O)[C@H](CCN)NC(=O)[C@H](CCCCCCCC)NC(=O)[C@@H](CC(C)C)NC(=O)[C@H](CCN)NC1=O ... 1

Q) Which MIC reading was recorded for the molecule CCCCCCCCCC(=O)N[C@H](CCN)C(=O)N[C@H]1CCNC(=O)[C@H]([C@@H](C)O)NC(=O)[C@H](CCN)NC(=O)[C@H](CCN)NC(=O)[C@@H](CC(C)C)NC(=O)[C@@H](CC(C)C)NC(=O)[C@H](CCN)NC1=O ?
A) 64

Q) What value of measured MIC is listed for CCCCCCCCCC(=O)N[C@H](CCN)C(=O)N[C@H]1CCNC(=O)[C@H]([C@@H](C)O)NC(=O)[C@H](CCN)NC(=O)[C@H](CCN)NC(=O)[C@H](CC(C)C)NC(=O)[C@@H](Cc2ccc(C)cc2)NC(=O)[C@H](CCN)NC1=O ?
A) 1

Q) Return reported MIC; argument: CCCCCCC[C@@H](O)CC(=O)N[C@@H](CCN)C(=O)N[C@H](CCN)C(=O)N[C@H]1CCNC(=O)[C@H](CC(C)C)NC(=O)[C@H](CCN)NC(=O)[C@H](CCN)NC(=O)[C@H](Cc2ccccc2)NC(=O)[C@@H](CC(C)C)NC(=O)[C@H](CCN)NC1=O
A) 16

---

- Test system: Escherichia coli
- RUN_DESCRIPTION: Antibacterial activity against Escherichia coli
- Type: functional
Bridge positions count the residues as written; N and C are the ends. Square brackets hold non-standard residues; d marks the D form. Peptide text beside a SMILES is read from it. * marks the point of attachment. X1 = CC[C@H](C)CCCCC(=O)*; Dab = NCC[C@H](N)C(=O)O
RECORDED_ENDPOINT: MIC (µg/mL)
All answers are understood in µg/mL, so give the number only.

Past entries and their recorded results:
CC[C@H](C)CCCCC(=O)N[C@@H](CCN)C(=O)N[C@H](C(=O)N[C@@H](CCN)C(=O)N[C@H]1CCNC(=O)[C@H]([C@@H](C)O)NC(=O)[C@H](CCN)NC(=O)[C@H](CCN)NC(=O)[C@H](CC(C)C)NC(=O)[C@@H](CC(C)C)NC(=O)[C@H](CCN)NC1=O)[C@@H](C)O (X1-[Dab]T[Dab][Dab][Dab][dL]L[Dab][Dab]T; lactam 4-C) ... 0.05
CC[C@H](C)CCCCC(=O)N[C@@H](CCN)C(=O)N[C@H](C(=O)N[C@@H](CCN)C(=O)N[C@H]1CCNC(=O)[C@H]([C@@H](C)O)NC(=O)[C@H](CCN)NC(=O)[C@H](CCN)NC(=O)[C@H](CC(C)C)NC(=O)[C@@H](Cc2ccccc2)NC(=O)[C@H](CCN)NC1=O)[C@@H](C)O (X1-[Dab]T[Dab][Dab][Dab][dF]L[Dab][Dab]T; lactam 4-C) ... 0.05

Let us examine a further case.
Q) Look at this molecule and give its reported MIC. CCCCCCC[C@@H](O)CC(=O)N[C@H](CCN)C(=O)N[C@H]1CCNC(=O)[C@H](CC(C)C)NC(=O)[C@H](CCN)NC(=O)[C@H](CCN)NC(=O)[C@H](CC(C)C)NC(=O)[C@@H](CC(C)C)NC(=O)[C@H](CCN)NC1=O
A) 0.1
